B1: ETS1 (parent)
chain: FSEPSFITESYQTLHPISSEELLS

# Variants of: B1
# ASSAY_REMARKS: protein stability index of a GFP-peptide fusion (GPS, HEK-293T) (PSI 1-6); higher = more stable;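 further: lentivirally expressed fusions sorted by FACS into six bins by GFP to DsRed ratio, PSI derived from sequencing read proportions per bin multiplied by bin number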
# CONDITION_SUMMARY: c terminus: a fixed tail appended

>  <INPUT_SEQUENCE>
FSEPSFITESYQTTHPISSEELLS

>  <protein stability index>
2.5

$$$$
>  <INPUT_SEQUENCE>
FSEPTFITESYQTLHPISSEELLS

>  <protein stability index>
2.1

$$$$
>  <INPUT_SEQUENCE>
FSEPSFITEWYQTLHPISSEELLS

>  <protein stability index>
1.5

$$$$
>  <INPUT_SEQUENCE>
FSEPSFITESNQTLHPISSEELLS

>  <protein stability index>
2.56

$$$$
>  <INPUT_SEQUENCE>
FSEPSFITESYQTLHPIASEELLS

>  <protein stability index>
1.93

$$$$
>  <INPUT_SEQUENCE>
FSEPSFITESYQTLHPISSEELNS

>  <protein stability index>
2.31

$$$$
>  <INPUT_SEQUENCE>
FSEPSFITESYQTLHPISSEQLLS

>  <protein stability index>
2.06

$$$$
>  <INPUT_SEQUENCE>
FSEPSFITESYQTLHPISSEELLK

>  <protein stability index>
2.49

$$$$
>  <INPUT_SEQUENCE>
FSEPSFITESYQLLHPISSEELLS

>  <protein stability index>
1.99

$$$$
>  <INPUT_SEQUENCE>
FSEPSFITELYQTLHPISSEELLS

>  <protein stability index>
2.52

$$$$
>  <INPUT_SEQUENCE>
FSEPSFITESYQTKHPISSEELLS

>  <protein stability index>
2.19

$$$$
>  <INPUT_SEQUENCE>
FSEPSFITESYQTLHPISDEELLS

>  <protein stability index>
2.31

$$$$
>  <INPUT_SEQUENCE>
FSEPSFITESYQTLHPISSEELRS

>  <protein stability index>
2.16

$$$$
>  <INPUT_SEQUENCE>
FSEPSFITESYQTLHPISREELLS

>  <protein stability index>
2.24

$$$$
>  <INPUT_SEQUENCE>
FSEPSFITESYQTLHPISSEEYLS

>  <protein stability index>
2.04

$$$$
>  <INPUT_SEQUENCE>
FSEPSFITRSYQTLHPISSEELLS

>  <protein stability index>
2.24

$$$$
>  <INPUT_SEQUENCE>
FSEPSFITESYQTYHPISSEELLS

>  <protein stability index>
1.55

$$$$
>  <INPUT_SEQUENCE>
FSEPSFITFSYQTLHPISSEELLS

>  <protein stability index>
2.58

$$$$
>  <INPUT_SEQUENCE>
FSEPSFITESYQTLHPHSSEELLS

>  <protein stability index>
1.76

$$$$
>  <INPUT_SEQUENCE>
FSEPSFITESYITLHPISSEELLS

>  <protein stability index>
1.58

$$$$
>  <INPUT_SEQUENCE>
FSEPSFITESYQTLLPISSEELLS

>  <protein stability index>
1.99

$$$$
>  <INPUT_SEQUENCE>
FSEPSFITESYQTLHPISSEEELS

>  <protein stability index>
2.67

$$$$
>  <INPUT_SEQUENCE>
FSEPSFITESYQNLHPISSEELLS

>  <protein stability index>
1.68

$$$$
>  <INPUT_SEQUENCE>
FSEPSFITESYQTLHPISSEELIS

>  <protein stability index>
1.52

$$$$
>  <INPUT_SEQUENCE>
FSEPSFITESYQTLHPISSEELTS

>  <protein stability index>
2.29

$$$$
>  <INPUT_SEQUENCE>
FSEPSNITESYQTLHPISSEELLS

>  <protein stability index>
4.57

$$$$
>  <INPUT_SEQUENCE>
FREPSFITESYQTLHPISSEELLS

>  <protein stability index>
2.66

$$$$
>  <INPUT_SEQUENCE>
VSEPSFITESYQTLHPISSEELLS

>  <protein stability index>
4.18

$$$$
>  <INPUT_SEQUENCE>
FSEPSFITESYQTLHPISSEERLS

>  <protein stability index>
2.19

$$$$
>  <INPUT_SEQUENCE>
FSEPSFITEPYQTLHPISSEELLS

>  <protein stability index>
2.62

$$$$
>  <INPUT_SEQUENCE>
FSEPSFITESYQTLHPISSEELES

>  <protein stability index>
2.44

$$$$
>  <INPUT_SEQUENCE>
FSEPSFITESYQTLHWISSEELLS

>  <protein stability index>
1.17

$$$$
>  <INPUT_SEQUENCE>
FSEPSFITESDQTLHPISSEELLS

>  <protein stability index>
2.96

$$$$
>  <INPUT_SEQUENCE>
FSEPSFITESYQTQHPISSEELLS

>  <protein stability index>
2.48

$$$$
>  <INPUT_SEQUENCE>
FSEPSFITESYQTLHPISSEENLS

>  <protein stability index>
2.33

$$$$
>  <INPUT_SEQUENCE>
FSEPSFITESYQTLHPISSEELVS

>  <protein stability index>
2.06

$$$$
>  <INPUT_SEQUENCE>
FNEPSFITESYQTLHPISSEELLS

>  <protein stability index>
3.37

$$$$
>  <INPUT_SEQUENCE>
FSEPSFITESYQTLHPISSMELLS

>  <protein stability index>
2.28

$$$$
>  <INPUT_SEQUENCE>
FSEPSFITESYQTLHPPSSEELLS

>  <protein stability index>
2.34

$$$$
>  <INPUT_SEQUENCE>
FSEPSFITESYQTLHPISSEPLLS

>  <protein stability index>
1.94

$$$$
>  <INPUT_SEQUENCE>
FSEGSFITESYQTLHPISSEELLS

>  <protein stability index>
2.37

$$$$
>  <INPUT_SEQUENCE>
FSWPSFITESYQTLHPISSEELLS

>  <protein stability index>
1.5

$$$$
>  <INPUT_SEQUENCE>
FSEPSFITESYQTLHPLSSEELLS

>  <protein stability index>
2.45

$$$$
>  <INPUT_SEQUENCE>
FSEPSFITESYQTLHDISSEELLS

>  <protein stability index>
1.81

$$$$
>  <INPUT_SEQUENCE>
FSEPSFITESYQTLHPISSEWLLS

>  <protein stability index>
1.99

$$$$
>  <INPUT_SEQUENCE>
FSEPSFITESYQTLHPICSEELLS

>  <protein stability index>
2.2

$$$$
